Taken from paper PMC12416549.

In this section we review reported apparent Kd (screen) values for a set of binders.
- TGT: T1, TNFR1 (Homo sapiens, UniProt P19438)
- T1 chain: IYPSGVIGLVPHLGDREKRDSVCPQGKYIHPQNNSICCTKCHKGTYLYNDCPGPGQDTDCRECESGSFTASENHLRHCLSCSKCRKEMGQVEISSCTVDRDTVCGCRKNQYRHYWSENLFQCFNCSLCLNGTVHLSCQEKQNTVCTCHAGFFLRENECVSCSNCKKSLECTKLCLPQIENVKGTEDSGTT
- ASSAY_TEXT: yeast display SC50
Provide the reading as a plain figure in nM.

For orientation, consider the following solved cases.
BINDER	RESULT_NUMBER
R92I (designed binder) MTLQELLREEALRRAEAEAFRYALELLAEKFPEQKEYLLDLAEEIESQIRSLSGVDVEDVRKFLDKEWAWVKELLAEHPAELAEVEAARAAILAELRAEVEAKVAA	0.49
K30E (designed binder) MTLQELLREEALRRAEAEAFRYALELLAEEFPEQKEYLLDLAEEIESQIRSLSGVDVEDVRKFLDKEWAWVKELLAEHPAELAEVEAARAARLAELRAEVEAKVAA	0.49

(Q) # query: apparent Kd (screen) of entry R14Y (designed binder) MTLQELLREEALRYAEAEAFRYALELLAEKFPEQKEYLLDLAEEIESQIRSLSGVDVEDVRKFLDKEWAWVKELLAEHPAELAEVEAARAARLAELRAEVEAKVAA
(A) 0.49
